The following compounds are listed with their measured cell viability values.
- Test system: NOMO1
- Method summary: cell viability relative to DMSO control; higher = less cytotoxic
- Details: RPMI 5 mM glucose + 10% dialyzed FBS; 48 h; 0.000781 µM

{"Compound": "O=C(N[C@H]1CN2CCC1CC2)c1ccc(Cl)cc1", "cell viability": "107%"}
{"Compound": "Oc1ccc(C2CNCCc3c2cc(O)c(O)c3Cl)cc1 (stereo not given)", "cell viability": "84.1%"}
{"Compound": "CNCCN(C)Cc1c[nH]nc1-c1ccc(O[C@H]2C[C@H](OCCC3CCOCC3)C2)cc1", "cell viability": "119%"}
{"Compound": "Cc1n[nH]c2ccc(-c3cncc(OC[C@@H](N)Cc4c[nH]c5ccccc45)c3)cc12", "cell viability": "104%"}
{"Compound": "COc1c(C)c2c(c(O)c1C/C=C(\\C)CCC(=O)OCCN1CCOCC1)C(=O)OC2", "cell viability": "102%"}
{"Compound": "OCCN1CCN(CCCN2c3ccccc3Sc3ccc(C(F)(F)F)cc32)CC1", "cell viability": "91.6%"}
{"Compound": "COCCNCCCn1c(C(=O)CF)c(-c2ccc(C)cc2)c2c(N)ncnc21", "cell viability": "96.8%"}
{"Compound": "CCCC[N+]1(C)[C@@H]2CC(OC(=O)[C@H](CO)c3ccccc3)C[C@H]1[C@@H]1O[C@@H]12 (stereo not given in full)", "cell viability": "120%"}
{"Compound": "CNC(=O)c1cc(COc2nnc(Nc3ccc(Cl)cc3)c3ccoc23)ccn1", "cell viability": "104%"}
{"Compound": "CC(C)C[C@@H](C(=O)N[C@H](C(=O)OC1CCCC1)c1ccccc1)[C@H](O)C(=O)NO", "cell viability": "114%"}
